Source: patent US8765755B2

Catalogue of IC50 readings, one per entry.
# System: BafT_J2
# assay-remarks: Cellular screening, BaF3 TEL:JAK2 cells (Alamar Blue)
# Type: cell-based
# condition-notes: Mus musculus, 40 hr incubation
quantity-name: IC50

Cn1cc(-c2ccc(NS(C)(=O)=O)cc2)c2nc(Nc3ccc(N4CCOCC4)cc3)ncc21
< 5 µM
NS(=O)(=O)c1ccc(-c2csc3cnc(Nc4ccc(N5CCOCC5)cc4)nc23)cc1
< 1 µM
CCN1CCC(Oc2ccc(Nc3ncc4scc(-c5cccc(S(=O)(=O)NC(C)(C)C)c5)c4n3)cc2)CC1
< 1 µM
CC(=O)Nc1cccc(-c2csc3cnc(Nc4ccc(OCCN5CCCC5)cc4)nc23)c1
< 1 µM

----------
# Tested on: BafT_J2
# assay-remarks: Cellular screening, BaF3 TEL:JAK2 cells (Alamar Blue)
# Type: cell-based
# condition-notes: Mus musculus, 40 hr incubation
pIC50: −log10 of the molar value.
quantity-name: pIC50

CCc1ccccc1-c1csc2cnc(Nc3ccc(N4CCOCC4)cc3)nc12
> 6.00
Fc1ccc(-c2csc3cnc(Nc4ccc(OCCN5CCCC5)cc4)nc23)cc1Cl
> 6.00
CN1CCN(c2ccc(-c3csc4cnc(Nc5ccc(CN6CCOCC6)cc5)nc34)cc2)CC1
> 6.00
COc1ncc(-c2csc3cnc(Nc4ccc(OC)c(OC)c4)nc23)c(OC)n1
> 5.30

----------
Catalogue of pIC50 readings, one per entry.
# system-name: human JAK3 (Homo sapiens, UniProt P52333)
# Construct: The kinase domain of human JAK3 was amplified; GST (N); made in house; host or cells: Sf9 (Spodoptera frugiperda) insect cells, baculovirus
# Sequence (P52333 822-1111 limits assumed): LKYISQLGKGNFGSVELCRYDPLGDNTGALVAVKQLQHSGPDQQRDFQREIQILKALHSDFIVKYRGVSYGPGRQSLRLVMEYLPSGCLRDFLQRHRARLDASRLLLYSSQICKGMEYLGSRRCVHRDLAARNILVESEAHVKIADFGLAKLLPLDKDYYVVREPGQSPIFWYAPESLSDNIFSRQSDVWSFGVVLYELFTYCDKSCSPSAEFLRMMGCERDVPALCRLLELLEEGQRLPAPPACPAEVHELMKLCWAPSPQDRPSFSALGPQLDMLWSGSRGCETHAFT
# assay-remarks: JAK3 kinase enzyme assay (Alphascreen)
# Assay type: biochemical
# condition-notes: 80 or 625 um ATP
pIC50: −log10 of the molar value.
quantity-name: pIC50

OCc1cccc(-c2csc3cnc(Nc4ccc(N5CCOCC5)cc4)nc23)c1
> 7.00
OCc1ccc(-c2csc3cnc(Nc4ccc(N5CCOCC5)cc4)nc23)cc1
> 7.00
CC(C)(C)NS(=O)(=O)c1cccc(-c2csc3cnc(Nc4ccc(CN5CCOCC5)cc4)nc23)c1
> 6.30
CCN1CCC(Oc2ccc(Nc3ncc4scc(-c5cn[nH]c5)c4n3)cc2)CC1
> 7.00
N#CCC(=O)Nc1cccc(-c2csc3cnc(Nc4ccc(N5CCOCC5)cc4)nc23)c1
> 7.00
C=CC(=O)Nc1ccc(-c2csc3cnc(Nc4ccc(N5CCOCC5)cc4)nc23)cc1
> 7.00
COc1cc(Nc2ncc3scc(-c4cccc(S(=O)(=O)NC(C)(C)C)c4)c3n2)cc(OC)c1OC
> 6.30
CS(=O)(=O)Nc1cccc(-c2csc3cnc(Nc4ccc(CN5CCOCC5)cc4)nc23)c1
> 7.00

----------
Catalogue of pIC50 readings, one per entry.
# Tested on: BafT_J2
# assay-remarks: Cellular screening, BaF3 TEL:JAK2 cells (Alamar Blue)
# Type: cell-based
# condition-notes: Mus musculus, 40 hr incubation
pIC50: −log10 of the molar value.
quantity-name: pIC50

COc1ccc(-c2csc3cnc(Nc4ccc(OC)c(OC)c4)nc23)c(OC)n1
> 5.30
N#CCNC(=O)c1cccc(-c2csc3cnc(Nc4ccc(N5CCOCC5)cc4)nc23)c1
> 6.00
CS(=O)(=O)Nc1cccc(-c2csc3cnc(Nc4ccc(CN5CCOCC5)cc4)nc23)c1
> 6.00
OCc1cccc(-c2csc3cnc(Nc4ccc(N5CCOCC5)cc4)nc23)c1
> 6.00
COc1ccc(Nc2ncc3scc(-c4cccnc4OC)c3n2)cc1OC
> 6.00
C=CC(=O)Nc1cccc(-c2csc3cnc(Nc4ccc(N5CCOCC5)cc4)nc23)c1
> 5.30
CC(C)(C)OC(=O)NCc1cccc(-c2csc3cnc(Nc4ccc(CN5CCOCC5)cc4)nc23)c1
> 5.30
COc1cc(Nc2ncc3scc(-c4ccc(NCCN5CCOCC5)nc4)c3n2)cc(OC)c1OC
> 6.00
